- Tested on: 388556-164-R-J1-PDC complex spheroid viability;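 also: spheroids exposed to compound for 7 days before readout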
- assayNotes: Anticancer human tumor 388556-164-R-J1-PDC patient-derived colon adenocarcinoma cell line growth inhibition [RAS]
- conditions: second compound 0.0949 µM; first compound 10 µM; stronger effect = lower value
Each record's class is read off its viability, T/C using these ranges: low range (below 30%), mid range (30% to below 70%), high range (70% or more)

# example entries with known answers
compound	testedSystem	label
NC1c2ccccc2OC12CCN(c1cnc3c(N4CCCc5ncccc54)n[nH]c3n1)CC2 (centres undefined) + CCn1c(-c2cccnc2C(C)OC)c2c3cc(ccc31)N1CCOC(CC(NC(=O)C(C(C)C)N(C)C(=O)C3(F)CCN(C(=O)C#CC(C)(C)N(C)C)CC3)C(=O)N3CCCC(N3)C(=O)OCC(C)(C)C2)C1	388556-164-R-J1-PDC complex spheroid viability	mid range
CC(C)NCC(C(=O)N1CCN(c2ncnc3c2C(C)CC3O)CC1)c1ccc(Cl)cc1 (centres undefined) + CCn1c(-c2cccnc2C(C)OC)c2c3cc(ccc31)N1CCOC(CC(NC(=O)C(C(C)C)N(C)C(=O)C3(F)CCN(C(=O)C#CC(C)(C)N(C)C)CC3)C(=O)N3CCCC(N3)C(=O)OCC(C)(C)C2)C1	388556-164-R-J1-PDC complex spheroid viability	high range

(Q) GET /class?item= CC(Nc1ccc2c(c1)OCCn1cc(N3C(=O)OCC3C(F)F)nc1-2)C(N)=O (centres undefined) + CCn1c(-c2cc(N3CCN(C)CC3)cnc2C(C)OC)c2c3cc(ccc31)-c1csc(n1)CC(NC(=O)C1CC1C)C(=O)N1CCCC(N1)C(=O)OCC(C)(C)C2
(A) low range

(Q) GET /class?item= CC(Nc1ccc2c(c1)OCCn1cc(N3C(=O)OCC3C(F)F)nc1-2)C(N)=O (centres undefined) + CCn1c(-c2cccnc2C(C)OC)c2c3cc(ccc31)N1CCOC(CC(NC(=O)C(C(C)C)N(C)C(=O)C3(F)CCN(C(=O)C#CC(C)(C)N(C)C)CC3)C(=O)N3CCCC(N3)C(=O)OCC(C)(C)C2)C1
(A) mid range

(Q) GET /class?item= C[C@@H](NC(=O)c1ncnc(N)c1Cl)c1ncc(C(=O)Nc2cc(C(F)(F)F)c(Cl)cn2)s1 + CCn1c(-c2cccnc2C(C)OC)c2c3cc(ccc31)N1CCOC(CC(NC(=O)C(C(C)C)N(C)C(=O)C3(F)CCN(C(=O)C#CC(C)(C)N(C)C)CC3)C(=O)N3CCCC(N3)C(=O)OCC(C)(C)C2)C1
(A) high range

(Q) GET /class?item= NC1c2ccccc2OC12CCN(c1cnc3c(N4CCCc5ncccc54)n[nH]c3n1)CC2 (centres undefined) + CCn1c(-c2cc(N3CCN(C)CC3)cnc2C(C)OC)c2c3cc(ccc31)-c1csc(n1)CC(NC(=O)C1CC1C)C(=O)N1CCCC(N1)C(=O)OCC(C)(C)C2
(A) low range

(Q) GET /class?item= C[C@@H](NC(=O)c1ncnc(N)c1Cl)c1ncc(C(=O)Nc2cc(C(F)(F)F)c(Cl)cn2)s1 + CCn1c(-c2cc(N3CCN(C)CC3)cnc2C(C)OC)c2c3cc(ccc31)-c1csc(n1)CC(NC(=O)C1CC1C)C(=O)N1CCCC(N1)C(=O)OCC(C)(C)C2
(A) mid range

(Q) GET /class?item= CCC(CC)c1cc(NC2CCC(N)C2)n2nccc2n1 (centres undefined) + CCn1c(-c2cccnc2C(C)OC)c2c3cc(ccc31)N1CCOC(CC(NC(=O)C(C(C)C)N(C)C(=O)C3(F)CCN(C(=O)C#CC(C)(C)N(C)C)CC3)C(=O)N3CCCC(N3)C(=O)OCC(C)(C)C2)C1
(A) mid range
